assay: Compound UV–VIS spectra in the presence of MgCl2 (chelation); assay type: physicochemical; settings: 6 mM MgCl2, UV–VIS 250–600 nm
recorded endpoint: shift in the maximum of absorbance in the presence of Mg2+ (nm)

>>> test_result("CCOC(=O)C(=O)CC(=O)/C=C/c1cccn1Cc1ccc(F)cc1 [RDS1643, reference compound]")
16
>>> test_result("CC#CC#C/C=C1\\C=CC2(CCCO2)O1 (stereo not shown) [SPK1, tonghaosu]")
3.5
>>> test_result("CC#CC#C/C=C1\\C=CC2(OC=CC2OC(C)=O)O1 (stereo not shown) [SPK2]")
4.5
>>> test_result("CC#CC#C/C=C1/O[C@@]2(OC=C[C@H]2OC(C)=O)[C@@H](O)[C@@H]1Cl [SPK3, flosculin A]")
3

----------
tested on: TZM-bl cells; assay: Cytotoxicity, CellTiter-Glo 2.0; type: cell-based; details: 48 h
recorded endpoint: CC50 (µM)

>>> test_result("CC#CC#C/C=C1/O[C@@]2(OC=C[C@H]2OC(C)=O)[C@@H](O)[C@@H]1Cl")
50.1
